These entries and their values trace back to patent US11008403.

EC50 overview
tgt: human TfR ECD (human)
Sequence (chain, as listed by the source): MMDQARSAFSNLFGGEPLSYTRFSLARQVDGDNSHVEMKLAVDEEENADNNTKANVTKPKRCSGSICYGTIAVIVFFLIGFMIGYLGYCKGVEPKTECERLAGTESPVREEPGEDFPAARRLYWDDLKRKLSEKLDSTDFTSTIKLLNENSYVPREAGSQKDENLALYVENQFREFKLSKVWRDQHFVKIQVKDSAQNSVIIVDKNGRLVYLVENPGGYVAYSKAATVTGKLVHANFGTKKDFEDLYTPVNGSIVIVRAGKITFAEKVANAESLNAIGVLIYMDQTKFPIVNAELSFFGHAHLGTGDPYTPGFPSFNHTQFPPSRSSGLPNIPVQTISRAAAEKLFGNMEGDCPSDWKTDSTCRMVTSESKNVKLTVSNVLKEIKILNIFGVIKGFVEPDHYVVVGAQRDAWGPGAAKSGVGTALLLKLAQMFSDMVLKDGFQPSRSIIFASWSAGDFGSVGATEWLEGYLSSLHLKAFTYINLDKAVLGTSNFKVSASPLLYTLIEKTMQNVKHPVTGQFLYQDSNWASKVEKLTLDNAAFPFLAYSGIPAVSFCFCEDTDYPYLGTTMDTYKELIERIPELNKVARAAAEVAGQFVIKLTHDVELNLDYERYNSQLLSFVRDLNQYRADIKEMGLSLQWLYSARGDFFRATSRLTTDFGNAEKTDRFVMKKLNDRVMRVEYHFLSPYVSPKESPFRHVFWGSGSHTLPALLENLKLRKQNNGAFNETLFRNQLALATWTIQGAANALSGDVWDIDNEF
procedureSummary: ELISA
# value in ng/mL; strip the unit string

Look over these answered cases.
{"columns": ["binder", "EC50, ng/mL"],
 "data": [
  ["hu15G11.v5 HC E50A (antibody, V domains shown) VH: EVQLVQSGAEVKKPGASVKVSCKASGYTFTSYWMHWVRQAPGQRLEWIGAINPTNGRTNYIEKFKSRATLTVDKSASTAYMELSSLRSEDTAVYYCARGTRAYHYWGQGTMVTVSS VL: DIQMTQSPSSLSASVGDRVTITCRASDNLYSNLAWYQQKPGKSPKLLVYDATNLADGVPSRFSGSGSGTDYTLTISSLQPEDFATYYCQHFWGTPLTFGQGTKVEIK", 20.6],
  ["hu15G11.v5 LC Y30A (antibody, V domains shown) VH: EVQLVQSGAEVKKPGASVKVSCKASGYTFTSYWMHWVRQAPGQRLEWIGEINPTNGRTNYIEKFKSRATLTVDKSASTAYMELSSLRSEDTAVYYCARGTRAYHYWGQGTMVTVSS VL: DIQMTQSPSSLSASVGDRVTITCRASDNLASNLAWYQQKPGKSPKLLVYDATNLADGVPSRFSGSGSGTDYTLTISSLQPEDFATYYCQHFWGTPLTFGQGTKVEIK", 0.3],
  ["hu15G11.v5 LC L54A (antibody, V domains shown) VH: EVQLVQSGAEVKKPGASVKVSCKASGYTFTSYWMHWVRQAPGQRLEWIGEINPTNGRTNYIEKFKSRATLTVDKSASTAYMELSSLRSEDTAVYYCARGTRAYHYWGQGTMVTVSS VL: DIQMTQSPSSLSASVGDRVTITCRASDNLYSNLAWYQQKPGKSPKLLVYDATNAADGVPSRFSGSGSGTDYTLTISSLQPEDFATYYCQHFWGTPLTFGQGTKVEIK", 0.4]
]}

Then this binder:
Query block: Which value of EC50 has been reported for hu15G11.v5 HC T28A (antibody, V domains shown) VH: EVQLVQSGAEVKKPGASVKVSCKASGYAFTSYWMHWVRQAPGQRLEWIGEINPTNGRTNYIEKFKSRATLTVDKSASTAYMELSSLRSEDTAVYYCARGTRAYHYWGQGTMVTVSS VL: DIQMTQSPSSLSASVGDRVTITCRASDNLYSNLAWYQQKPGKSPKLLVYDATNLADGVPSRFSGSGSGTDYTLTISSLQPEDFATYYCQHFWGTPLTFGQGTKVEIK in the records?
Result block: 0.4
